Target: AMP-activated protein kinase, AMPK (Homo sapiens) (UniProt P54646+O43741+P54619+Q9UGJ0+Q9Y478+Q13131+Q9UGI9)
Experiment: AMP-dependent Kinase enzyme assay. An in vitro enzyme assay that detects ADP turnover that is directly proportional to AMPK activity. This uses naive AMPK that is activated during the assay with MK-8722
Type: functional
Parameters: scale not given: direction of the effect not stated beside the values
Conditions: 30 µM
Measurement label: Percent Effect (%)

Compound	Units of measure	Observed
O=C(c1cc(Cl)cc(Cl)c1)N1CCN(c2nccs2)CC1	%	5.26
CN(C)CCNC(=O)c1cnc2c(c1)nc(-c1ccccc1Cl)n2C	%	-1.84
COc1ccc(C(=O)Nc2cnn(CC(=O)NC3CCCC3)c2)c(O)c1	%	-8.3
CCN(Cc1nc2c(cnn2C)c(=O)[nH]1)c1cccc(Cl)c1	%	4.11
CCn1c(=O)nc2n1C(=O)N(c1cccc(Cl)c1)C2	%	-1.98
O=C(c1nc(=O)[nH][nH]1)N1CCCC(c2cc(C(F)(F)F)[nH]n2)C1 (stereo unspecified)	%	-7.65
COc1ccc2c(c1)CN(Cc1nc3c(cnn3C)c(=O)[nH]1)CC2	%	-8.08
COc1c(C)cnc(CN2CCC(N(C)C(C)C(N)=O)CC2)c1C (stereo unspecified)	%	3.82
CSc1ccccc1CN1CCn2nc(CNC(C)=O)cc2C1	%	1.85
Fc1cccc(N2CCCC3(CN(Cc4ccncc4)CCO3)C2)c1 (stereo unspecified)	%	13.4
CS(=O)(=O)CCC(=O)Nc1cnn(-c2ccccc2Cl)c1	%	-8

---

Molecular target: AMP-activated protein kinase, AMPK (Homo sapiens) (UniProt P54646+O43741+P54619+Q9UGJ0+Q9Y478+Q13131+Q9UGI9)
Experiment: AMP-dependent Kinase enzyme assay. An in vitro enzyme assay that detects ADP turnover that is directly proportional to AMPK activity. This uses naive AMPK that is activated during the assay with MK-8722
Type: functional
Design: scale not given: direction of the effect not stated beside the values
Conditions: 30 µM

Molecule	Percent Effect (%)
CCC(O)CN1CCN(C(=O)c2ccnc(N(C)C)c2)CC1 (stereo unspecified)	-5.16
O=C(Cc1ccsc1)N1CCn2cc(CN3CCCC3)nc2C1	-4.43
COc1ccc(OC)c(C2C3=C(COC3=O)Nc3[nH]nc(C)c32)c1 (stereo unspecified)	0.267
COc1ccc2cc(C(=O)N3CCCCC3Cn3cccn3)[nH]c2c1 (stereo unspecified)	2.23
CC(NC(=O)c1cccs1)C(=O)NCc1cccnc1N1CCCCC1 (stereo unspecified)	4.11
Cc1cc(CN2CCN(CC(O)C(C)(C)C)CC2)no1 (stereo unspecified)	-2.9
CN(Cc1nnc(C2CC2)n1C)C(=O)c1ccnc(OC2CCC2)c1	2.08
Cc1nc(N2CCCC2)nc2c1CN(C(C)C)CC2	-1.49
COc1ccc(OC)c(NC(=O)N2CCCC2c2ccco2)c1 (stereo unspecified)	7.39
Cc1cc(C(F)(F)F)c2c(C3CCN(S(=O)(=O)N(C)C)CC3)noc2n1	6.65
COc1c(C)cnc(CN2CCOC(Cn3nc(C)nc3C)C2)c1C (stereo unspecified)	-1.91

---

Percent Effect values by entry
Target: Protein translocase subunit SecA (Escherichia coli (strain K12)) (UniProt P10408)
Sequence (P10408 whole entry): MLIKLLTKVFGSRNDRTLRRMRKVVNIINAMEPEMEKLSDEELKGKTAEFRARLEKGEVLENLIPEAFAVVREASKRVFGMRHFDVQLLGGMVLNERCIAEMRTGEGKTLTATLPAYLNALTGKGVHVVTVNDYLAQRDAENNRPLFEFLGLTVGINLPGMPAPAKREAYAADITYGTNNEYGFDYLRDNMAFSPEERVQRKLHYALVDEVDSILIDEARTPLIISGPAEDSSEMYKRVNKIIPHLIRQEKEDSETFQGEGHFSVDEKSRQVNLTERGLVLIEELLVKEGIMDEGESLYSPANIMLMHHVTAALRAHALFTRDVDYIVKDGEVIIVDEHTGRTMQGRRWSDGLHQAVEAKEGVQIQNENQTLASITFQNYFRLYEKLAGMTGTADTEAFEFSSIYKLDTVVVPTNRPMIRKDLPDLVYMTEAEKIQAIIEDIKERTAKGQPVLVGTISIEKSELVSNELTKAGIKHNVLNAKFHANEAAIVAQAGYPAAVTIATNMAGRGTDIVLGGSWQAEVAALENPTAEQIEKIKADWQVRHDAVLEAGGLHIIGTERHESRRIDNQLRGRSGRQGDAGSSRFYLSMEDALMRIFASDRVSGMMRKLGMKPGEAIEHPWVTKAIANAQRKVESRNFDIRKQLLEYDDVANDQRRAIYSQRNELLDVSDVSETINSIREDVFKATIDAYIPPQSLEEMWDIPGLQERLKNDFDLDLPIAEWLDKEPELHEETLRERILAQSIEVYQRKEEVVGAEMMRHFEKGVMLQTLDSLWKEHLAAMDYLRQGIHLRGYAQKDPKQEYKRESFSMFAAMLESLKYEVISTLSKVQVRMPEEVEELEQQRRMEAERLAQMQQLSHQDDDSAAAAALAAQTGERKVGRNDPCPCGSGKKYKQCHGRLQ
Test: Assay to Identify E. coli SecA ATPase Inhibitors
Format: functional
Set-up: scale not given: direction of the effect not stated beside the values
Settings: 30 µM
Measured potencies and affinities stand elsewhere.

Molecule	Assayed target	Percent Effect (%)
Cc1nccn1CCCC(=O)N1CCC(Nc2cccnn2)CC1	Protein translocase subunit SecA (Escherichia coli (strain K12)) (UniProt P10408)	-3.42
Cc1ccc(C(=O)N2Cc3ccccc3C2)cc1N1CCNC1=O	Protein translocase subunit SecA (Escherichia coli (strain K12)) (UniProt P10408)	-6.25
COc1cc(N2C[C@@H]3COC[C@]3(COCc3cccc(C)n3)C2)ncn1	Protein translocase subunit SecA (Escherichia coli (strain K12)) (UniProt P10408)	-0.6
Cc1ccc(C(=O)N2CCSCC2)cc1NC(=O)NCCO	Protein translocase subunit SecA (Escherichia coli (strain K12)) (UniProt P10408)	-5.08
CN(CC1(O)CCCN(c2ccccn2)C1)C(=O)Cc1ccsc1 (centres undefined)	Protein translocase subunit SecA (Escherichia coli (strain K12)) (UniProt P10408)	-5.09
Cc1occc1C(=O)N1CCC2(CC1)NC(=O)CC2c1cnn(C)c1 (centres undefined)	Protein translocase subunit SecA (Escherichia coli (strain K12)) (UniProt P10408)	-3.16
COc1cccc(CNCc2nnc3n2CC(C(F)(F)F)CC3)c1 (centres undefined)	Protein translocase subunit SecA (Escherichia coli (strain K12)) (UniProt P10408)	0.608
COc1cccc(COCC(O)CN2CC(n3cccn3)C2)c1 (centres undefined)	Protein translocase subunit SecA (Escherichia coli (strain K12)) (UniProt P10408)	0.892
COCCn1c2c(ccc1=O)CC(NS(C)(=O)=O)CC2 (centres undefined)	Protein translocase subunit SecA (Escherichia coli (strain K12)) (UniProt P10408)	-3.49
Cc1nc(CN2C(=O)COC3(CCN(Cc4ccco4)CC3)C2C)cs1 (centres undefined)	Protein translocase subunit SecA (Escherichia coli (strain K12)) (UniProt P10408)	-3.92
O=C(CCc1nccs1)N1CCCC(N2CCNC2=O)C1 (centres undefined)	Protein translocase subunit SecA (Escherichia coli (strain K12)) (UniProt P10408)	-3.25
O=C(c1ccc(Cl)o1)N1CCCN(Cc2cscn2)CC1	Protein translocase subunit SecA (Escherichia coli (strain K12)) (UniProt P10408)	-5.01
COCCCn1c(CN2CCCC(O)C2)cnc1S(=O)(=O)C1CCCC1 (centres undefined)	Protein translocase subunit SecA (Escherichia coli (strain K12)) (UniProt P10408)	-5.06
Cc1nc(CNC(=O)Cn2nc(-c3ccc(F)cc3)oc2=O)cs1	Protein translocase subunit SecA (Escherichia coli (strain K12)) (UniProt P10408)	-2.4
CSc1ccc(C(CNC(=O)C2CC2)N2CCc3sccc3C2)cc1 (centres undefined)	Protein translocase subunit SecA (Escherichia coli (strain K12)) (UniProt P10408)	-3.4
CCC(C(=O)NC)N(c1cccc(C)c1)S(C)(=O)=O (centres undefined)	Protein translocase subunit SecA (Escherichia coli (strain K12)) (UniProt P10408)	-4.2
CCOc1nnc(CN(C)C2CCCN(c3cccnn3)C2)s1 (centres undefined)	Protein translocase subunit SecA (Escherichia coli (strain K12)) (UniProt P10408)	-2.38
Cc1cc(CN2CCC(c3ccnn3CCO)CC2)no1	Protein translocase subunit SecA (Escherichia coli (strain K12)) (UniProt P10408)	-3.65
Cc1cnn(CC2CCCN2CCCc2nc3ccccc3o2)c1 (centres undefined)	Protein translocase subunit SecA (Escherichia coli (strain K12)) (UniProt P10408)	-6.63
O=C(Cc1cccc(F)c1)NCCNCc1ccco1	Protein translocase subunit SecA (Escherichia coli (strain K12)) (UniProt P10408)	-9.13
CNc1cc(N2CCCC2CNCc2ccccn2)ncn1 (centres undefined)	Protein translocase subunit SecA (Escherichia coli (strain K12)) (UniProt P10408)	-1.73
CCNC(=O)N1CCCCC1CCO (centres undefined)	Protein translocase subunit SecA (Escherichia coli (strain K12)) (UniProt P10408)	1.22
CC(C)COC(C)C(=O)NCc1ccc(N(C)C)cc1 (centres undefined)	Protein translocase subunit SecA (Escherichia coli (strain K12)) (UniProt P10408)	-2.38
CN(C)C(CNS(=O)(=O)c1ccc(F)cc1F)c1cccn1C (centres undefined)	Protein translocase subunit SecA (Escherichia coli (strain K12)) (UniProt P10408)	-6.84
Cc1nc(-c2ccco2)ccc1C(=O)N1CCCC1Cn1cccn1 (centres undefined)	Protein translocase subunit SecA (Escherichia coli (strain K12)) (UniProt P10408)	-2.79
CC(N(C)Cc1nc2c(cnn2C)c(=O)[nH]1)C(C)(C)C (centres undefined)	Protein translocase subunit SecA (Escherichia coli (strain K12)) (UniProt P10408)	-4.87
COc1c(CNC(c2nccn2C)C(C)C)c(C)nn1C (centres undefined)	Protein translocase subunit SecA (Escherichia coli (strain K12)) (UniProt P10408)	1.37
CN(C)CCNC(=O)c1cnc2c(c1)nc(-c1ccccc1Cl)n2C	Protein translocase subunit SecA (Escherichia coli (strain K12)) (UniProt P10408)	-0.258
CC(C)NC(=O)COc1nc(C(C)(C)C)no1	Protein translocase subunit SecA (Escherichia coli (strain K12)) (UniProt P10408)	-4.03
CC(O)CN1CCN(C(=O)CN(C)c2cnccn2)CC1 (centres undefined)	Protein translocase subunit SecA (Escherichia coli (strain K12)) (UniProt P10408)	3.16
Cc1cc(C)n(CCCNC(=O)C(C)NC(=O)c2ccccc2Cl)n1 (centres undefined)	Protein translocase subunit SecA (Escherichia coli (strain K12)) (UniProt P10408)	-2.06
Cn1cc(CN2CC3(CCN(C(=O)c4ccoc4)C3)C2)cn1	Protein translocase subunit SecA (Escherichia coli (strain K12)) (UniProt P10408)	-1.29
Cc1cnn(CC2CCCCN2Cc2noc(C3CC3)n2)c1 (centres undefined)	Protein translocase subunit SecA (Escherichia coli (strain K12)) (UniProt P10408)	-2.92
Cc1csc(N2CCN(C(=O)CCc3ccccn3)CC2)n1	Protein translocase subunit SecA (Escherichia coli (strain K12)) (UniProt P10408)	-1.62
COCC(O)CNC(=O)c1coc(COc2ccc3sc(C)nc3c2)n1 (centres undefined)	Protein translocase subunit SecA (Escherichia coli (strain K12)) (UniProt P10408)	-0.0441
Cc1noc2nc(C3CCN(Cc4ccncc4)CC3)cc(C(F)F)c12	Protein translocase subunit SecA (Escherichia coli (strain K12)) (UniProt P10408)	-9.38
Cc1oncc1C(=O)N1CCC2(C1)CN(c1cccnc1)C(=O)CN2C (centres undefined)	Protein translocase subunit SecA (Escherichia coli (strain K12)) (UniProt P10408)	-3.58
Cc1cc2n(n1)CC(CNCc1cnn(-c3ccccc3)c1)CN2 (centres undefined)	Protein translocase subunit SecA (Escherichia coli (strain K12)) (UniProt P10408)	2.28
COCC1CN(C(=O)c2cccn2C)Cc2nccn2C1 (centres undefined)	Protein translocase subunit SecA (Escherichia coli (strain K12)) (UniProt P10408)	-0.683
CNc1cccc(C2CCCN(C(=O)c3ccncc3)C2)n1 (centres undefined)	Protein translocase subunit SecA (Escherichia coli (strain K12)) (UniProt P10408)	-4.49
CSc1ccc(CNC(c2ccccc2)c2nccn2C)cc1 (centres undefined)	Protein translocase subunit SecA (Escherichia coli (strain K12)) (UniProt P10408)	-5.49
Cc1cccnc1CN1CCC(c2nnc(Cn3cccn3)n2C)CC1	Protein translocase subunit SecA (Escherichia coli (strain K12)) (UniProt P10408)	-4.04
Cc1nc(NCc2cccnc2)c2c(n1)c(C)nn2C	Protein translocase subunit SecA (Escherichia coli (strain K12)) (UniProt P10408)	0.594
Cc1ccc(CS(=O)(=O)N2CC[C@H]3[C@H]2CCN3C)cc1	Protein translocase subunit SecA (Escherichia coli (strain K12)) (UniProt P10408)	1.22
O=C(NCCNc1ccc(C(F)(F)F)cn1)c1cncc(Br)c1	Protein translocase subunit SecA (Escherichia coli (strain K12)) (UniProt P10408)	1.84
O=C(NCCNc1ncccn1)N1CCSCC1	Protein translocase subunit SecA (Escherichia coli (strain K12)) (UniProt P10408)	-0.808
Cc1cc(-c2cnn(CCNC(=O)c3cccnc3)c2C2CC2)on1	Protein translocase subunit SecA (Escherichia coli (strain K12)) (UniProt P10408)	-4.86
Cn1nccc1CNC(=O)Nc1cc(C(F)(F)F)c[nH]c1=O	Protein translocase subunit SecA (Escherichia coli (strain K12)) (UniProt P10408)	-2.37
COCCOc1ccc(NC(=O)C2CCC2)cn1	Protein translocase subunit SecA (Escherichia coli (strain K12)) (UniProt P10408)	-2.7
